- System: SW-620 colon
- protocol.text: NCI-60 one-dose screen, 48 h
- cond: 10 µM unless noted
Compounds without any hit were thinned out: in the full panel of roughly 83,000, 20% have a hit. The source made the active and inactive calls. How the source made its calls: active means growth percent below 10; inactive means the rest.
Valid outcomes are listed here; reply with one: active, inactive

Any idea what this test logged for O=C1/C(=C\c2ccc(Br)o2)SC(=S)N1CCc1ccc(O)cc1 ?
inactive

Lab log entry: Cc1ccc(N(CC(=O)Nc2ccc(S(=O)(=O)NC3CCN(C)CC3)cc2)S(=O)(=O)c2ccc(Cl)cc2)cc1 — outcome as called in the assay?
inactive

Could you check what this test reported for CC1(n2nnnc2N2CCCN(c3ncccc3N)CC2)CCC1 ?
inactive

Write down the call the test reported for this molecule. Item: CC1(C)C(=O)CC[C@]2(C)[C@H]3C(=O)C=C4[C@@H]5C[C@@](C)(C(=O)NCCNCCN)CC[C@]5(C)CC[C@@]4(C)[C@]3(C)CC[C@@H]12
inactive

What did this assay record as the result for C/C(Cc1ccc(Cl)cc1)=C(/c1ccc(Cl)cc1)c1ccc(OCCN2CCCC2)cc1 ?
inactive

Please state the recorded outcome for this molecule: CC(C)c1cc(C(=O)O)c(O)c(C(C)C)c1.CC(C)c1cc(C(=O)O)c(O)c(C(C)C)c1.[Mn]
inactive

Called result for O=c1c2sc3ncc(Br)cc3c2ncn1-c1cccc(Cl)c1
inactive

* * *

- System: U251 CNS
- protocol.text: NCI-60 one-dose screen, 48 h
- cond: 10 µM unless noted
The panel holds about 83,000 compounds, 20% with a hit somewhere; the sample as a whole holds those more often. Activity calls are given as the source filed them. The calls were made as follows: active = growth percent below 10; inactive = the rest.
Respond with a class label; see active, inactive

NC1=NN=C2N(N)C(=O)c3cnn(-c4ccccc4)c3N2c2nc(-c3ccccc3)cc(-c3ccccc3)c21 | inactive

GET /call?item= Cc1cccc(C)c1NC(=O)CSC(=S)N1CCN(CCOCCO)CC1 returns the recorded outcome of this test.
inactive

Field: outcome | Entry: O=C1c2cccc3cccc(c23)C(=O)N1CC#Cc1ccc2c3c(cccc13)C(=O)N(CCO)C2=O
inactive

Record lookup: outcome of this test for Oc1cc(/C=C/c2nc(N3CCOCC3)c3cc(Cl)c(Cl)cc3n2)cc(O)c1O ?
inactive

* * *

- System: U251 CNS
- protocol.text: NCI-60 one-dose screen, 48 h
- cond: 10 µM unless noted
Compounds without any hit were thinned out: in the full panel of roughly 83,000, 20% have a hit. Activity calls are given as the source filed them. Rule for the calls: active = growth percent below 10; inactive = the rest.
Your response should consist of one outcome taken from yes (1) for active, no (0) for inactive

C/C(=C(/c1ccccc1)c1ccc(N2C(=O)c3cccc4c(NCc5ccccc5)ccc(c34)C2=O)cc1)c1ccccc1 | no (0)
Nc1c(C(=O)Nc2c(Cl)cccc2Cl)sc2nc3c(cc12)CCCC3 | no (0)
COc1ccc(-c2cc(=O)oc3ccc(Cl)cc23)cc1F | yes (1)
Fc1ccc(Nc2ccc3c(OCCCN4CCOCC4)cccc3n2)cc1F | no (0)
Cc1ccc(NC2CC(=O)N(c3c(C)cc(C)cc3C)C2=O)c(C)c1 (centres undefined) | no (0)
c1cnc2[nH]cc(-c3csc(-c4cn(CCCN5CCCCC5)c5ccccc45)n3)c2c1 | no (0)
O=S(=O)(NCCNc1cc(-c2cn(-c3ccccc3)nc2-c2cccc(O)c2)ccn1)c1ccc(F)cc1 | no (0)
Nc1nc2c3ccncc3cc(-c3cccc(Cl)c3)c2c2cnccc12 | no (0)

Please indicate how the test categorized O=C1CCC/C=C\C[C@H]2C=C(Cl)C(=O)/C2=C/C[C@H](CCCCC(F)(F)F)OC(=O)CCC/C=C\C[C@H]2C=C(Cl)C(=O)/C2=C/C[C@H](CCCCC(F)(F)F)O1 .
yes (1)

Answer briefly: the call reported for Cn1cc(-c2nc(-c3c[nH]c4ncccc34)cs2)c2cc(Br)ccc21 in this assay.
no (0)

Could you please tell me the result logged for C[C@H]1[C@@H]2[C@H]3CC[C@@H]4[C@@]5(C)Cc6c([nH]c7ccccc67)C(C)(C)[C@@H]5CC[C@@]4(C)[C@]3(C)CC[C@]23CO[C@]1(C)[C@@H](C(=O)/C=C/c1ccccn1)C3 in this assay?
no (0)

Returns: the outcome recorded for COC(=O)C(N)CSC(c1ccccc1)(c1ccccc1)c1ccccc1 (centres undefined) in this assay.
no (0)

Record request — test call for Nc1nc2c(c(=O)[nH]1)C(c1ccc3c(c1)OCO3)C=C(C(=O)O)N2 (centres undefined)
no (0)

Called result for OCCNc1nc(Nc2ccc(Cl)c(Cl)c2)nc2ccccc12
no (0)

Any idea what this test logged for COc1cnc2c(c1)C(=O)c1c-2n(CCCNCCN2CCOCC2)c(=O)c2cc([N+](=O)[O-])ccc12 ?
yes (1)

Just curious, what result did Cc1cc(C)nc(NC(N)=NCCc2ccccc2)n1 get here?
no (0)

For CCCCC[C@H]1C/C=C2/C(=O)C(Cl)=C[C@@H]2C/C=C\CCCC(=O)O1 , which call appears in the assay record?
yes (1)

Could you please tell me the result logged for Nc1c(C(=O)Nc2cccc(Cl)c2)sc2ncc(Cl)cc12 in this assay?
no (0)

What is the recorded call for this molecule in the test? COc1ccc2c(c1)c(-c1nc(-c3c[nH]c4ncccc34)cs1)cn2CCCN1CCCCC1
yes (1)

The reported measurements were obtained from PubChem BioAssay (NCI).
